Target under test: T1, recombinant human LIF (Leukemia Inhibitory Factor) (human, UniProt P15018 23-202)
T1 construct: also called biotinylated recombinant human LIF
T1 sequence (P15018 23-202 limits assumed, form in doubt): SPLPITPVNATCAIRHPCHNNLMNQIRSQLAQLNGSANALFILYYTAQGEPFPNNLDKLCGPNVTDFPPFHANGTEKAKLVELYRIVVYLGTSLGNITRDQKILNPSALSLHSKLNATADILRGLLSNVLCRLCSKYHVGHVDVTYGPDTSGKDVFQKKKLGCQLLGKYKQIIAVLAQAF
Method description: ELISA, coated recombinant human LIF, anti-human Fc HRP detection
Metric name: EC50 (nM)
Respond with the bare value in nM.

Answer with the recorded EC50 for the binder listed here: NB0938 (antibody, V domains shown, Humanized variant of B7 by CDR grafting; also called Clone 938) VH: EVQLVESGGGLVQPGGSLRLSCAASGFSFSTDYWMSWVRQAPGKGLEWVSSIYVGTSGDTYYADSVKGRFTISRDNSKNTLYLQMDSLRAEDTAIYYCAGADNPYDYFNLWGQGTLVTVS VL: DIQMTQSPSSLSASVGDRVTITCRASETISGYLNWYQQKPGKAPKLLIYRASSLQSGVPSRFSGSGSGTDFTLTISSLQPEDFATYYCQQGYSYSDTDNVFGGGTKVEIK
0.13
